Data origin: patent US11696914B1

List of pKd values.
target: SARS-CoV-2 Spike RBD (Severe acute respiratory syndrome coronavirus 2, UniProt P0DTC2); assay type: binding; conditions: pH5.2
# pKd = -log10(concentration in molar units)

> print(dat)
                            compound.smiles                              assay.system  measure  test.result
1  CCN(CC)CCOc1ccc2c(c1)C(=O)c1cc(OCCN(CC)CC)ccc1-2  SARS-CoV-2 Spike RBD (Severe acute respiratory syndrome coronavirus 2, UniProt P0DTC2)      pKd         6.20

INPUT: Give SARS-CoV-2 Spike RBD (Severe acute respiratory syndrome coronavirus 2, UniProt P0DTC2) pKd for the following compound: `COc1ccc2nc3cc(Cl)ccc3c(Nc3cc(CN4CCCC4)c(O)c(CN4CCCC4)c3)c2n1`
OUTPUT: 6.21

----------
conditions: microsomes
List of Dextromethorphan: compound, t1/2 normalized to dextromethorphan control values.
Reply briefly: the number, and no unit.

INPUT: Give a short answer stating reported Dextromethorphan: compound, t1/2 normalized to dextromethorphan control for CCN(CC)CCCC(C)Nc1c2ccc(Cl)cc2nc2ccc(OC)cc12 (stereo not shown) [Quinacrine] .
OUTPUT: 1

INPUT: Give a short answer stating reported Dextromethorphan: compound, t1/2 normalized to dextromethorphan control for CCN(CC)CCOc1ccc2c(c1)C(=O)c1cc(OCCN(CC)CC)ccc1-2 [Tilorone] .
OUTPUT: 16.9

INPUT: Give a short answer stating reported Dextromethorphan: compound, t1/2 normalized to dextromethorphan control for COc1ccc2nc3cc(Cl)ccc3c(Nc3cc(CN4CCCC4)c(O)c(CN4CCCC4)c3)c2n1 [Pyronaridine] .
OUTPUT: 16.7

INPUT: Give a short answer stating reported Dextromethorphan: compound, t1/2 normalized to dextromethorphan control for CCN(CC)CCCC(C)Nc1ccnc2cc(Cl)ccc12 (stereo not shown) [Chloroquine] .
OUTPUT: 19.1

----------
assay: in vitro; conditions: guinea pig, microsomes, t1/2 of CYP probe controls
measure: half-life (min)
Lab book: enter the figure in min, no units written.

> print(dat)
                                   molecule    measure  test.result
1    Cc1ncc2n1-c1ccc(Cl)cc1C(c1ccccc1F)=NC2  half-life         3.75
2  COc1ccc2[nH]c([S+]([O-])Cc3ncc(C)c(OC)c3C)nc2c1 (stereo not drawn)  half-life           34

// switching to the query molecule
INPUT: Give a short answer stating reported half-life for `COc1ccc2c(c1)[C@]13CCCC[C@@H]1[C@H](C2)N(C)CC3` .
OUTPUT: 2.9

----------
test: in vivo; conditions: female, Hartley, guinea pig, po, 100 mg/kg, AUClast Mean
measure: AUC(0-t) (ng·h/mL)
Lab book: enter the figure in ng·h/mL, no units written.

INPUT: Give a short answer stating reported AUC(0-t) for CCN(CC)CCOc1ccc2c(c1)C(=O)c1cc(OCCN(CC)CC)ccc1-2 [Tilorone] .
OUTPUT: 3330

----------
List of Relative Peak Area/Abundance GPLM values.
details: guinea pig, pH 7.4
Lab book: enter the figure in %, no units written.

INPUT: Give a short answer stating reported Relative Peak Area/Abundance GPLM for `COc1ccc2nc3cc(Cl)ccc3c(Nc3cc(CN4CCCC4)c(O)c(CN4CCCC4)c3)c2n1` .
OUTPUT: 75.9

INPUT: Give a short answer stating reported Relative Peak Area/Abundance GPLM for `CCN(CC)CCOc1ccc2c(c1)C(=O)c1cc(OCCN(CC)CC)ccc1-2` .
OUTPUT: 35.5

INPUT: Give a short answer stating reported Relative Peak Area/Abundance GPLM for CCN(CC)CCCC(C)Nc1ccnc2cc(Cl)ccc12 (stereo not shown) .
OUTPUT: 43.3

INPUT: Give a short answer stating reported Relative Peak Area/Abundance GPLM for CCN(CC)CCCC(C)Nc1c2ccc(Cl)cc2nc2ccc(OC)cc12 (stereo not shown) .
OUTPUT: 20.7

----------
test: in vivo; settings: male, Hartley, guinea pig, po, 200 mg/kg, AUClast Mean
measure: AUC(0-t) (ng·h/mL)
Lab book: enter the figure in ng·h/mL, no units written.

INPUT: Give a short answer stating reported AUC(0-t) for CCN(CC)CCOc1ccc2c(c1)C(=O)c1cc(OCCN(CC)CC)ccc1-2 [Tilorone] .
OUTPUT: 5750
